Kindly state IC50 for each of the entries shown.
The answer is to be given in nM; state only the numeric part.

Prompt: Form entry - test system: DPP-IV (Homo sapiens (Human), UniProt P27487); read-out: IC50; compound: "CC#CCn1c(N2CCC[C@@H](N)C2)nc2c1c(=O)n(Cc1cnc3cccnc3c1)c(=O)n2C"
Sequence (P27487 whole entry): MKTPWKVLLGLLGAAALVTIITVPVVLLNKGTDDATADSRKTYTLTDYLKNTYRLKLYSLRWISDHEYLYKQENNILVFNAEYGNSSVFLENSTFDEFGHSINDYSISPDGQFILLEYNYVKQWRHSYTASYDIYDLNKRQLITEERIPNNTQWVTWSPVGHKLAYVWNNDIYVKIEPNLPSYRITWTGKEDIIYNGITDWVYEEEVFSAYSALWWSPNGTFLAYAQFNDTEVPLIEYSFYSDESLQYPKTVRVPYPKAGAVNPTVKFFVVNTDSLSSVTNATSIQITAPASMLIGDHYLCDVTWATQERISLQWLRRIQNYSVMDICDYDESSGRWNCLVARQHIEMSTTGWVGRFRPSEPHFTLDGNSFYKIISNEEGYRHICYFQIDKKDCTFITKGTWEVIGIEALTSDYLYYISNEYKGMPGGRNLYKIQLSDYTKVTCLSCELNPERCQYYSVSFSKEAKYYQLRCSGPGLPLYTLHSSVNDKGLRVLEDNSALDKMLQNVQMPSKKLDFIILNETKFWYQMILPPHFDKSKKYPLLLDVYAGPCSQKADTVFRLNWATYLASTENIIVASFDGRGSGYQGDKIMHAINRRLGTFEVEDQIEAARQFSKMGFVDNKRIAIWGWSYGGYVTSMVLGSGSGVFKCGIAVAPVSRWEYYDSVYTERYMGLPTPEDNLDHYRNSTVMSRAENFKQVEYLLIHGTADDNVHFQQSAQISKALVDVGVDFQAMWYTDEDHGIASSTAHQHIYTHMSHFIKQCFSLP
Completion: 2

Prompt: GET /values?readout=IC50&system=DPP-IV (Homo sapiens (Human), UniProt P27487)&item= "CC#CCn1c(N2CCC[C@@H](N)C2)nc2c1c(=O)n(Cc1nc3ccccc3cc1C#N)c(=O)n2C"
Completion: 2

Prompt: What measured IC50 is associated with "CC#CCn1c(N2CCC[C@@H](N)C2)nc2c1c(=O)n(Cc1ccc3nc(C)c(C)nc3c1)c(=O)n2C" on DPP-IV (Homo sapiens (Human), UniProt P27487)?
Completion: 2

Prompt: Hi! What's the reported IC50 for "CC#CCn1c(N2CCC[C@@H](N)C2)nc2c1c(=O)n(Cc1ccc3cncnc3c1)c(=O)n2C" on DPP-IV (Homo sapiens (Human), UniProt P27487)?
Completion: 1
